- Tested System: Dual specificity mitogen-activated protein kinase kinase 7 (Homo sapiens, UniProt O14733)
- Sequence (O14733 whole entry): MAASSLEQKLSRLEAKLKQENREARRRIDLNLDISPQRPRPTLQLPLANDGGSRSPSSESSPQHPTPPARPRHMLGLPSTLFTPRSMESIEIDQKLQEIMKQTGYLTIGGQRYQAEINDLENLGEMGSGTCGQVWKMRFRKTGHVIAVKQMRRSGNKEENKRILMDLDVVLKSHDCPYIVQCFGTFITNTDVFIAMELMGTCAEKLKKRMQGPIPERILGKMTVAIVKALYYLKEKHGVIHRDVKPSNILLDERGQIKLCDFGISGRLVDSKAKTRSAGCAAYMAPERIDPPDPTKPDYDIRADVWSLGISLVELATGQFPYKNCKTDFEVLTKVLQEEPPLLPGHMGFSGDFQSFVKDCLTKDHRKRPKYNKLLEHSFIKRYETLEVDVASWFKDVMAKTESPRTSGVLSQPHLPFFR
- Test: Inhibition of MAP2K7 (unknown origin) using JNK peptide KFMMTPYVVTR incubated for 30 mins measured by multimode reader based ADP-glo assay
Outcome Measure: IC50 (nM)
Enter your answer as a number in nM; do not include the unit.

What value of measured IC50 is listed for `C#CCNC(=O)c1cc(NC(=O)C=C)cc(-c2n[nH]c3ccccc23)c1` ?
6.5
